System: HEK-293T
Assay: Multiplex assay against HEK293T
Assay type: toxicity, cell-based
Settings: human, 12 h, 10 µM, compound concentration 10 uM, replicate 2
We begin with a simple list: items and their reported Population Normal (%).
Form entry: enter the amount, then its unit.

MOLECULE: CCn1cc(-c2ccnc3[nH]c(-c4cccc(CN(C)C)c4)cc23)c(-c2ccc(NC(=O)N(C)C)cc2)n1 [GSK-1070916]
RECORDED ENDPOINT: Population Normal (%)
REPORTED VALUE: 89%

MOLECULE: COc1ccc(-c2ccc3c(N4CCOCC4)nc(N4C[C@@H](C)O[C@@H](C)C4)nc3n2)cc1CO [Ku-0063794]
RECORDED ENDPOINT: Population Normal (%)
REPORTED VALUE: 72%

MOLECULE: O=C1NC(=O)C(c2cnc3ccccn23)=C1c1cn2c3c(cc(F)cc13)CN(C(=O)N1CCCCC1)CC2 [LY-2090314]
RECORDED ENDPOINT: Population Normal (%)
REPORTED VALUE: 91%

MOLECULE: CNc1cc(Oc2cc(C(=O)Nc3cc(N4CCN(C)CC4)cc(C(F)(F)F)c3)ccc2C)ncn1
RECORDED ENDPOINT: Population Normal (%)
REPORTED VALUE: 85%

MOLECULE: CCN1CCN(Cc2ccc(Nc3ncc(F)c(-c4cc(F)c5nc(C)n(C(C)C)c5c4)n3)nc2)CC1.CS(=O)(=O)O
RECORDED ENDPOINT: Population Normal (%)
REPORTED VALUE: 79%

Data request: Quick one: Population Normal (%) of C=CCn1c(=O)c2cnc(Nc3ccc(N4CCN(C)CC4)cc3)nc2n1-c1cccc(C(C)(C)O)n1 [ADAVOSERTIB] ?
Data returned: 97%

Data request: Next entry: Cl.Oc1ccc2c3c1O[C@H]1c4[nH]c5c(c4C[C@@]4(O)[C@@H](C2)N(CC2CC2)CC[C@]314)C[C@@]1(O)[C@H]2Cc3ccc(O)c4c3[C@@]1(CCN2CC1CC1)[C@H]5O4
Data returned: 97%

Data request: Next entry: Cc1ccc(C(=O)Nc2cccc(C(F)(F)F)c2)cc1Nc1nc(-c2cccnc2)nc2c1cnn2C
Data returned: 94%

Data request: Next entry: COc1cc(N2CCN(C)CC2)ccc1Nc1ncc2c(n1)N(C)c1ccccc1C(=O)N2C
Data returned: 93%

Data request: Next entry: CCCn1c(=O)c2[nH]c(-c3cnn(Cc4cccc(C(F)(F)F)c4)c3)nc2n(CC)c1=O [GS 6201]
Data returned: 97%

Data request: Next entry: CCCS(=O)(=O)Nc1ccc(F)c(C(=O)c2c[nH]c3ncc(Cl)cc23)c1F [PLX-4720]
Data returned: 97%
